Target: IKZF2 (Homo sapiens, UniProt Q96SW2+Q9UKS7)
Sequence (Q9UKS7 whole entry): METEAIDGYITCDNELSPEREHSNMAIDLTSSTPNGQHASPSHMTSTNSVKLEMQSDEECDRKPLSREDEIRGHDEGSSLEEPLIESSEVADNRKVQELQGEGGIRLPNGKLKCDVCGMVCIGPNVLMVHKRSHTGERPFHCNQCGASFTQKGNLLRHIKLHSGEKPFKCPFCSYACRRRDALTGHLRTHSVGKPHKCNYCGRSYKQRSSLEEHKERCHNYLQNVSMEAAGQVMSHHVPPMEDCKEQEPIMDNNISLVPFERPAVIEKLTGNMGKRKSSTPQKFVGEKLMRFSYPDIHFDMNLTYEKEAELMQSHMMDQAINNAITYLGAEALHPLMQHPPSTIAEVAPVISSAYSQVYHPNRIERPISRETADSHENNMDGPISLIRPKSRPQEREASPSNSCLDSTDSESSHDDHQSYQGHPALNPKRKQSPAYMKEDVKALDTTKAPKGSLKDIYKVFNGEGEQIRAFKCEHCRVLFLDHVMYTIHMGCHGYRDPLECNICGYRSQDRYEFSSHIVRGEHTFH
Sequence (Q96SW2 whole entry): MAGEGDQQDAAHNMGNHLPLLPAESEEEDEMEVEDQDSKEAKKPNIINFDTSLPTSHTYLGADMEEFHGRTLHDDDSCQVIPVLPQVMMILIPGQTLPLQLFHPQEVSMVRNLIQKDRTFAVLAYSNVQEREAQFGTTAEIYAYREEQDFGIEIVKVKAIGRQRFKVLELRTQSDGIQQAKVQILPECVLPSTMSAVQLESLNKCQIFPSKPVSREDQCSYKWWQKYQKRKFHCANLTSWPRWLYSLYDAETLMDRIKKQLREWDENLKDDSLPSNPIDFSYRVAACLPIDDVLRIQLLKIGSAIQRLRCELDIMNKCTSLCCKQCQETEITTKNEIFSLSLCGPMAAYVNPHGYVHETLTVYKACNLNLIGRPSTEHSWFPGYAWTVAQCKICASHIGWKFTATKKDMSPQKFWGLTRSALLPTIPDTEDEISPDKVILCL
Sequence (Q16531 whole entry partner): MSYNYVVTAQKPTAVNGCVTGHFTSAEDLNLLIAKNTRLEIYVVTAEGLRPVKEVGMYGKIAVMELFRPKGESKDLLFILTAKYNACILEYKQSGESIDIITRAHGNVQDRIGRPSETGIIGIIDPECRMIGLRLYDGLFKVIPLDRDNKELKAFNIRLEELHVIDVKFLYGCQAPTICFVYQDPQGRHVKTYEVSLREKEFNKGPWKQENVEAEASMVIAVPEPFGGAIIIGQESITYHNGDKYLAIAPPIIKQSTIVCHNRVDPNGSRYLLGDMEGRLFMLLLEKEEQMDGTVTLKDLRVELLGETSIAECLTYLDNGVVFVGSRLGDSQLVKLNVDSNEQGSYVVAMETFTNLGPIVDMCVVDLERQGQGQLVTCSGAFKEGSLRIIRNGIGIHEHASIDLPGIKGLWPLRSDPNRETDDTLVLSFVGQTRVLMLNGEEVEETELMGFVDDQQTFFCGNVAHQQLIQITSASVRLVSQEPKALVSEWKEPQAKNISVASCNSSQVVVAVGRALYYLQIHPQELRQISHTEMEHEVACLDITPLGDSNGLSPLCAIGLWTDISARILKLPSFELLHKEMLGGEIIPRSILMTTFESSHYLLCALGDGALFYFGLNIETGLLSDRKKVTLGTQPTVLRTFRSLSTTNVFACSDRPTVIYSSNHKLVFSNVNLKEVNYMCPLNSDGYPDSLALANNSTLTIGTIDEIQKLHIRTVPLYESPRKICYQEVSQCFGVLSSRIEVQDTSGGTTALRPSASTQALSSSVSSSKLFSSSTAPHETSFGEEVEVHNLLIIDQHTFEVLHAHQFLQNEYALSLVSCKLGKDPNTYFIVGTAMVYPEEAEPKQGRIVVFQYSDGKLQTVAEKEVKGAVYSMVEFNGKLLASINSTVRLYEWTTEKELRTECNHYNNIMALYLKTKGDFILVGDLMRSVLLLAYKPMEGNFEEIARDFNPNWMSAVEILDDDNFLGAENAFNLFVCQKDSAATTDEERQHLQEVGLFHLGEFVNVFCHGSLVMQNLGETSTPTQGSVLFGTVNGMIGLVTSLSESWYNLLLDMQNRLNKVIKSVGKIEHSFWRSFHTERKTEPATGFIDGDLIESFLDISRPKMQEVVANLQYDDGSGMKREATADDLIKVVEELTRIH
Experiment: Prolabel quantification of IKZF2 protein levels in 293GT cells
Format: cell-based
Details: 24 h, 10 μM, 24 h, 293GT cells; read-out: IKZF2 % protein reduction at 10 μM, 24 h
parameter: inhibition at 10 µM (%)

O=C1CCC(N2Cc3cc(C4CCN(Cc5cn[nH]c5)CC4)ccc3C2=O)C(=O)N1 (stereo not drawn) | 60

1. CCOc1ccc(CN2CCC(c3ccc4c(c3)CN(C3CCC(=O)NC3=O)C4=O)CC2)cc1 (stereo not drawn)
2. CC(C)(C)c1ccc(C(=O)N2CCC(c3ccc4c(c3)CN(C3CCC(=O)NC3=O)C4=O)CC2)cc1 (stereo not drawn)
3. O=C1CCC(N2Cc3cc(C4CCN(Cc5ccnn5-c5ccccc5)CC4)ccc3C2=O)C(=O)N1 (stereo not drawn)
4. O=C1CCC(N2Cc3cc(C4CCN(Cc5ccccc5)C4)ccc3C2=O)C(=O)N1 (stereo not drawn)
q: Form: Sort by [inhibition at 10 µM] Order [ ascending ] Lab note: record answer as labels in requested order.
a: 2, 4, 3, 1

1. CN(C)S(=O)(=O)c1ccc(CN2CCC(c3ccc4c(c3)CN(C3CCC(=O)NC3=O)C4=O)CC2)cc1 (stereo not drawn)
2. O=C1CCC(N2Cc3cc(C4CCN([C@@H](CO)c5ccccc5)CC4)ccc3C2=O)C(=O)N1 (single isomer, unassigned)
q: Decide: 1 or 2 , by lowest recorded inhibition at 10 µM. Your answer should be the label attached to the chosen record.
a: 2
(2: 40%, 1: 70%)

A. O=C1CCC(N2Cc3cc(C4CCN(Cc5ccccc5C5CC5)CC4)ccc3C2=O)C(=O)N1 (stereo not drawn)
B. O=C1CCC(N2Cc3cc(C4CCN(Cc5ccc(C(F)(F)F)cn5)CC4)ccc3C2=O)C(=O)N1 (stereo not drawn)
q: Decide: A or B , by lowest recorded inhibition at 10 µM. Your answer should be the label attached to the chosen record.
a: B
(B: 40%, A: 60%)

1. O=C1CCC(N2Cc3cc(C4CCN(Cc5nc6ccsc6c(=O)[nH]5)CC4)ccc3C2=O)C(=O)N1 (stereo not drawn)
2. Cc1cn(C)c(CN2CCC(c3ccc4c(c3)CN(C3CCC(=O)NC3=O)C4=O)CC2)n1 (stereo not drawn)
3. CC1(C)CC(c2ccc3c(c2)CN(C2CCC(=O)NC2=O)C3=O)CC(C)(C)N1 (stereo not drawn)
q: List items by inhibition at 10 µM in falling order. Lab note: record answer as labels in requested order.
a: 1, 2, 3

I. O=C1CCC(N2Cc3cc(C4CCN(Cc5ccc6[nH]c(=O)[nH]c6c5)CC4)ccc3C2=O)C(=O)N1 (stereo not drawn)
II. O=C1CCC(N2Cc3cc(C4CCN(Cc5cccc6cccnc56)CC4)ccc3C2=O)C(=O)N1 (stereo not drawn)
q: Decide: I or II , by lowest recorded inhibition at 10 µM. Your answer should be the label attached to the chosen record.
a: II
(II: 40%, I: 60%)

P. O=C1CCC(N2Cc3cc(C4CCN(Cc5ccc(-n6cccn6)cc5)CC4)ccc3C2=O)C(=O)N1 (stereo not drawn)
Q. Cn1ccc(CN2CCC(c3ccc4c(c3)CN(C3CCC(=O)NC3=O)C4=O)CC2)n1 (stereo not drawn)
q: Out of P and Q , name the one with the higher inhibition at 10 µM. Your answer should be the label attached to the chosen record.
a: P

P. O=C1CCC(N2Cc3cc(C4CCN(Cc5cc(C6CC6)[nH]n5)CC4)ccc3C2=O)C(=O)N1 (stereo not drawn)
Q. O=C1CCC(N2Cc3cc(C4CCN(CCC(F)(F)F)CC4)ccc3C2=O)C(=O)N1 (stereo not drawn)
q: Decide: P or Q , by lowest recorded inhibition at 10 µM. Your answer should be the label attached to the chosen record.
a: Q
